For each entry below, report its TGI value.
# Test system: UO-31 renal
# experimental_details: NCI tumour cell line growth inhibition, 48 h
// return numeric value only (unit: µM, not printed)

For the molecule shown here, O=C1c2c(F)c(F)c(F)c(F)c2SC2=Nc3cccc4cccc(c34)N12 , give the reported TGI.
21.7

Ok, now CC(=O)N1CCN(CCCCN2c3ccccc3Sc3cc(N=[N+]=[N-])ccc32)CC1
23.5

Ok, now O=Cc1cn(S(=O)(=O)c2ccccc2)c2ccccc12
68

Ok, now C=C(C)[C@@H]1CC[C@]2(C(=O)N3CCN(C)CC3)CC[C@]3(C)[C@H](CC[C@@H]4[C@@]5(C)CC[C@H](O)C(C)(C)[C@@H]5CC[C@]43C)[C@@H]12
3.24

Ok, now COC1/C=C/OC2(C)Oc3c(C)c(O)c4c(O)c(c(C=NOC(c5ccccc5)c5ccccc5)c(O)c4c3C2=O)NC(=O)/C(C)=C/C=C/C(C)C(O)C(C)C(O)C(C)C(OC(C)=O)C1C (stereo not given)
7.74

Ok, now Cc1cc2nc(CC(C(F)(F)F)C(F)(F)F)oc2cc1C
26.2

Ok, now Oc1[nH]c2ccccc2c1/C=c1/ccc2c(c1)N=C(c1cc(F)cc(F)c1)N=2
20.1

Ok, now COC1=CC(c2ccc[nH]2)=N/C1=C\c1[nH]c(C)c(C)c1CCC(=O)OCc1ccccc1
0.459
